Value source: patent US20250027068

biological target: pooled human IgG
The following proteins are shown together with reported Enzyme Activity Endpoint Assay: IgG values.
measurement.label: Enzyme Activity Endpoint Assay: IgG (ng/µL)

protein="PRT-537 (protein) MANQEIRYSSDSEWANKKVWVYGITPPEEGAWFYSTYYLPWKKEYGWYDCNKRNPTADGMMCWAASASNLLHWWIAQNKEYIDLYGDKYKGPDKINFNGEQMFDVKEYIDPLDKPQESDIFQCFIDKSFADLSTKHEAGKGDAGINWFIHGIIPSSPAHGPTPVKLRYPYNPAGYFKDVFPRGDGVVLLGNNGDFKELGKERFNETIKDALANKKGIGLSIGPVNVRSSHVVTIWGAEFDENGDVSYIYMADNNDRWGVGCIRYQIVYEEGGTYTCYKTEIIPSDRPIPINRLVTLELGEEYWKQTNLEHHHHHH" measurement_label="Enzyme Activity Endpoint Assay: IgG" value=1000
protein="PRT-34 (protein) MANQEIRYSEVTPYHVTSVWTKGVTPPANFTQGEDVFHAPYVANQGWYDITKTFNGKDDLLCGAATAGNMLHWWFDQNKDQIKRYLEEHPEKQKINFNGEQMFDVKEAIDTKNSQLDSKLFEYFKEKAFPYLSTKHLGVFPDHVIDMFINGYRLSLTNHGPTPVKEGSKDPRGGIFDAVFTRGDQSKLLTSRHDFKEKNLKEISDLIKKELTEGKALGLSHTYANVRINHVINLWGADFDSNGNLKAIYVTDSDSNASIGMKKYFVGVNSAGKVAISAKEIKEDNIGAQVLGLFTLSTGQDSWNQTN" measurement_label="Enzyme Activity Endpoint Assay: IgG" value=10
